These measurements were taken from ChEMBL document CHEMBL1157438.

test system: RAW264.7; assay: Cell viability of LPS-stimulated mouse RAW264.7 cells after 24 hrs by MTT assay; assay type: functional; design: concentration or dose not given beside the values
Decision: Activity >= 80% yields Satisfied, all other cases yield Not satisfied.

Worked cases, answers included:
CC(C)=CCOc1ccc(C2=C(CC(C)C)C(=O)N(O)C2=O)cc1	Satisfied
CC(C)=CCOc1ccc(C2=C(CC(C)C)C(=O)OC2=O)cc1	Not satisfied
CC(=O)ON1C(=O)C(CC(C)C)=C(c2ccc(OCC=C(C)C)cc2)C1=O	Satisfied
CC(C)=CCOc1ccc(C2=C(CC(C)C)C(O)OC2=O)cc1 (configuration not stated)	Satisfied
CC(C)=CCOc1ccc(C2=C(CC(C)C)C(=O)NC2=O)cc1	Not satisfied

Ask: Does the compound `CC(C)CC1=C(c2ccc(O)cc2)C(=O)OC1=O` have recorded Activity that is 80% or more?
Result: Not satisfied
